Cited source for all entries: PubChem BioAssay (NCI)

- Test system: SNB-75 CNS
- PROTOCOL SUMMARY: NCI-60 one-dose screen, 48 h
- PARTICULARS: 10 µM unless noted
About 83,000 compounds went through this panel and 20% of them were active in at least one assay; those are over-represented in the sample as a whole. Activity calls are given as the source filed them. How the source made its calls: active means growth percent below 10; inactive means the rest.
Outcome codes: 1 (active), -1 (inactive)

>  <MOLECULE>
COc1cc(OC)c(/C=C/S(=O)(=O)Cc2ccc(OC)c(NCC(=O)NO)c2)c(OC)c1

>  <TESTED SYSTEM>
SNB-75 CNS

>  <LABEL>
-1

$$$$
>  <MOLECULE>
O=C(CSc1nnc(-c2ccc(Cl)cc2)n1-c1ccccc1)Nc1ccc(Br)cc1

>  <TESTED SYSTEM>
SNB-75 CNS

>  <LABEL>
1

$$$$
>  <MOLECULE>
Cc1nn(-c2ccccc2)c2ncnc(N/N=C/c3cccc(O)c3)c12

>  <TESTED SYSTEM>
SNB-75 CNS

>  <LABEL>
-1

$$$$
>  <MOLECULE>
Cc1c(F)cc(C(N)=O)cc1NCC(=O)Nc1ccc([N+](=O)[O-])cc1

>  <TESTED SYSTEM>
SNB-75 CNS

>  <LABEL>
-1

$$$$
>  <MOLECULE>
Cn1cc(-c2nc(N)nnc2-c2c[nH]c3ccc(Br)cc23)c2cc(Br)ccc21

>  <TESTED SYSTEM>
SNB-75 CNS

>  <LABEL>
-1

$$$$
>  <MOLECULE>
N#Cc1cccc(CN2CCc3ncn(Cc4ccc(Cl)cc4)c(=O)c3C2)c1

>  <TESTED SYSTEM>
SNB-75 CNS

>  <LABEL>
-1

$$$$
>  <MOLECULE>
Cc1cc(S(=O)(=O)N(C)C)cc(NCC(=O)NC(=O)NCC(C)C)c1C

>  <TESTED SYSTEM>
SNB-75 CNS

>  <LABEL>
-1

$$$$
>  <MOLECULE>
COc1cc(C2N=C(NNc3ccccc3)NC(C)=C2C(C)=O)ccc1O (stereo not given)

>  <TESTED SYSTEM>
SNB-75 CNS

>  <LABEL>
-1

$$$$
>  <MOLECULE>
O=C(NNc1nc2cc(F)ccc2n2cccc12)c1ccncn1

>  <TESTED SYSTEM>
SNB-75 CNS

>  <LABEL>
1

$$$$
>  <MOLECULE>
CCn1c(SCC(=O)Nc2cccc(C(=O)/C=C/c3cc(OC)c(OC)c(OC)c3)c2)nc2ccccc2c1=O

>  <TESTED SYSTEM>
SNB-75 CNS

>  <LABEL>
1

$$$$
